Data provenance is paper PMC8805583.

Target: SGK1 (Homo sapiens)
pKd: −log10 of the molar value.
REPORTED_METRIC: pKd

>>> numeric_value("O=c1c(O)c(-c2ccc(O)cc2)oc2c(O)c(O)cc(O)c12")
6.08

====

Property: IC50; scope: individual molecules
Molecular target: SGK1 (Homo sapiens, UniProt O00141)
Sequence (O00141 1-431): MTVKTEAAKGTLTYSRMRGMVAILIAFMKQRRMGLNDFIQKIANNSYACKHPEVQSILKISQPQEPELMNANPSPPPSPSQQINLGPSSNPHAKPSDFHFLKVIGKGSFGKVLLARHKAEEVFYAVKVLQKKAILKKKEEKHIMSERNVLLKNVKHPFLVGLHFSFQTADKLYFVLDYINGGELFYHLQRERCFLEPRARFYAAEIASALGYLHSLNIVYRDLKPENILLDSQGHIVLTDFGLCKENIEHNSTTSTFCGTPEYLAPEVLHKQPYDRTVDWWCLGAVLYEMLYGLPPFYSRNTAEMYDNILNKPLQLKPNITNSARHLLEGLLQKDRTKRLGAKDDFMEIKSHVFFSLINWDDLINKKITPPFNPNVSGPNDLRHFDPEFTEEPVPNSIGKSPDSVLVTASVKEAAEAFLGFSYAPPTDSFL
Assay: Mass spectrometry-based SGK1 kinase inhibitory assay (LC/MS of phosphorylated […])
Assay type: biochemical
Conditions: in figure; n = 3
REPORTED_METRIC: IC50 (µM)

>>> numeric_value("O=c1c(O)c(-c2ccc(O)cc2)oc2cc(O)cc(O)c12")
11.3
>>> numeric_value("O=c1c(O)c(-c2ccc(O)cc2)oc2cc(O)ccc12")
11.6

====

Test: Pharmacokinetics and tissue distribution after single oral administration
Format: in vivo, Sprague-Dawley rats
Conditions: male, Sprague-Dawley, plasma; single oral dose 40 mg kg−1; rat; read-out: time of maximal plasma concentration (converted)
REPORTED_METRIC: Tmax (min)

>>> numeric_value("O=c1c(O)c(-c2ccc(O)cc2)oc2c(O)c(O)cc(O)c12")
10
